Assay System: APE1 (Homo sapiens, UniProt P27695)
Construct: made in house
Sequence (P27695 whole entry): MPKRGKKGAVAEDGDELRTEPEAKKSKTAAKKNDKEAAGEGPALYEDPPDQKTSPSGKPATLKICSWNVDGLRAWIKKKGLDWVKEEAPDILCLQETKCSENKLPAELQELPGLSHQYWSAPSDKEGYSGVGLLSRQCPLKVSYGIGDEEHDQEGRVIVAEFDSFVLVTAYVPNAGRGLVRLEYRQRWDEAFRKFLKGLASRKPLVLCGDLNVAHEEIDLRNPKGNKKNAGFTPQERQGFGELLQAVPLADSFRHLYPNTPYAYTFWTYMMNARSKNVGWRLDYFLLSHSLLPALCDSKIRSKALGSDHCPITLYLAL
Method Summary: Fluorogenic kinetic qHTS APE1 incision assay (primary screen and retest of cherrypicked samples)
Type: biochemical
Conditions: initial quantitative high-throughput screen; read-out: APE1 qHTS IC50
pIC50: −log10 of the molar value.

Molecule: Cc1c(O)cc2c(c1O)C(=O)CC(c1ccc(O)cc1)O2 (centres unmarked)
pIC50: 5.80

Molecule: COc1cccc(NC(=O)CN(C)C(=O)c2cc(-c3ccco3)nc3ccccc23)c1
pIC50: 4.97

Molecule: CCOC(=O)C1CCN(/C=C2/C(=O)NC(=O)N(Cc3ccco3)C2=O)CC1
pIC50: 4.85

Molecule: O=C(c1cc(C(=O)c2ccco2)cc(C(=O)c2ccco2)c1)c1ccco1
pIC50: 4.50

Molecule: N[C@H](Cc1ccc(O)c(O)c1)C(=O)O
pIC50: 6.00

###

Assay System: APE1 (Homo sapiens, UniProt P27695)
Construct: made in house
Method Summary: Fluorogenic kinetic qHTS APE1 incision assay (primary screen and retest of cherrypicked samples)
Type: biochemical
Conditions: retest of cherrypicked sample; read-out: APE1 Retest IC50

Compound: O=C1CCCC(O)=C1N=Nc1cccc(C(=O)O)c1
IC50 / µM: 12.6
--
Compound: Nc1nc(=S)c2ncn(C3OC(CO)C(O)C3O)c2[nH]1 (centres unmarked)
IC50 / µM: 3.6
--
Compound: CCCCN(C(=O)c1cccc(-n2cccc2)c1)c1c(N)n(Cc2ccccc2)c(=O)[nH]c1=O
IC50 / µM: 12.9
--
Compound: CN(C)C(=O)Nc1ccc(Cl)c(Cl)c1
IC50 / µM: 44.7
--
Compound: Cc1ccc(NC(=O)CN2C(=O)N/C(=C\c3cccn3-c3cccc(C(=O)O)c3)C2=O)cc1
IC50 / µM: 1.4

###

Assay System: APE1 (Homo sapiens)
Construct: made in house
Method Summary: Gel-based APE1 incision assay with fluorescence (TAMRA) detection
Type: biochemical
Conditions: entries 113-223: fluorophore detection, estimated IC50; read-out: Gel-based electrophoretic separation assay with fluorophore detection, estimated IC50 (column headed Radiotracer Assay (%Activity))
pIC50: −log10 of the molar value.

Compound: c1ccc2c(NCCc3c[nH]c4ccccc34)c3ccccc3nc2c1 [MLS001195935]
pIC50: 4.60
//
Compound: CCOC(=O)c1ccc2[nH]c(-c3ccc(S(=O)(=O)F)cc3)cc(=O)c2c1 [MLS000737558]
pIC50: 4.55
//
Compound: COc1cccc(NC(=O)CN(C)C(=O)c2cc3c(s2)CCC3)c1 [MLS001142077]
pIC50: 5.00
//
Compound: COc1ccc(Cl)cc1NC(=O)CCS(=O)(=O)c1ccc(Br)cc1 [MLS001202289]
pIC50: 4.90
//
Compound: COc1ccc(S(=O)(=O)NCCC(=O)NC2CCCCC2C)cc1[N+](=O)[O-] (centres unmarked) [MLS002251710]
pIC50: 4.95
//
Compound: Cc1sc2ncnc(SCC(=O)Nc3ncccc3O)c2c1C [MLS002181609]
pIC50: 4.85
//
Compound: CCNc1nc(NCC)n2c(SCC(=O)Nc3ccccc3C(F)(F)F)nnc2n1 [MLS001234389]
pIC50: 4.85
//
Compound: CCOc1ccc(NC(=O)CN(C)C(=O)C2COc3ccccc3O2)cc1OCC (centres unmarked) [MLS002248300]
pIC50: 4.70
//
Compound: N#Cc1c(NC(=O)COC(=O)c2ccc(O)cc2O)sc2c1CCC2 [MLS001159876]
pIC50: 4.95
//
Compound: CSCC[C@H](NS(=O)(=O)c1ccc(C(C)=O)cc1)c1nnc2ccccn12 [MLS001158971]
pIC50: 4.65
//
Compound: CC(=O)Nc1ccc(S(=O)(=O)NCCC(=O)OCC(=O)N2CCN(C(=O)c3ccco3)CC2)cc1 [MLS001078987]
pIC50: 4.65
//
Compound: CC(C)(C)OC(=O)C[C@@H]1C/C=C\C[C@@H](CC(=O)NCCO)C(=O)N[C@H](Cc2c[nH]c3ccccc23)COC1=O [MLS002320206]
pIC50: 4.70
//
Compound: COc1cc(-c2nnc(COC(=O)c3ccc(C)o3)o2)cc(OC)c1OC [MLS001139127]
pIC50: 4.85
//
Compound: Cc1coc2c(C)c3oc(=O)c(CCC(=O)N[C@@H](C)C(=O)N[C@@H](Cc4ccccc4)C(=O)O)c(C)c3cc12 [MLS001140219]
pIC50: 4.70

###

Measured IC50 of individual entries
Assay System: APE1 (Homo sapiens, UniProt P27695)
Construct: made in house
Method Summary: Fluorogenic kinetic qHTS APE1 incision assay (primary screen and retest of cherrypicked samples)
Type: biochemical
Conditions: initial quantitative high-throughput screen; read-out: APE1 qHTS IC50
Quantity Name: IC50 (µM)

Mol: CCn1c(SCC(=O)O)nc2sc3c(c2c1=O)CCC3
Assay System: APE1 (Homo sapiens, UniProt P27695)
Quantity Name: IC50
Test Result: 22.4
--
Mol: O=C(NC1CC1)C1CCN(S(=O)(=O)c2cc([N+](=O)[O-])ccc2Cl)CC1
Assay System: APE1 (Homo sapiens, UniProt P27695)
Quantity Name: IC50
Test Result: 10.6
--
Mol: COc1ccc(N2Cc3cccc(C(=O)O)c3C2=O)cc1
Assay System: APE1 (Homo sapiens, UniProt P27695)
Quantity Name: IC50
Test Result: 12.6
--
Mol: Cc1cccc(NC(=O)CNC(=O)CCc2nc3sc4c(c3c(=O)[nH]2)CCCC4)c1C
Assay System: APE1 (Homo sapiens, UniProt P27695)
Quantity Name: IC50
Test Result: 10.6
--
Mol: COc1cc(N(C)C)cc(CN(C)CCc2ccc([N+](=O)[O-])cc2)c1O
Assay System: APE1 (Homo sapiens, UniProt P27695)
Quantity Name: IC50
Test Result: 3.2
--
Mol: COc1ccc2c(c1)c(=O)oc1cc(OCC(=O)N3CCC(C)CC3)ccc12
Assay System: APE1 (Homo sapiens, UniProt P27695)
Quantity Name: IC50
Test Result: 15.6
--
Mol: COc1ccc(S(=O)(=O)N2CCN(C(=O)c3cc4c(s3)CCC4)CC2)cc1
Assay System: APE1 (Homo sapiens, UniProt P27695)
Quantity Name: IC50
Test Result: 2.7
--
Mol: CCCN(C(=O)c1cccc(-n2cccc2)c1)c1c(N)n(Cc2ccccc2)c(=O)[nH]c1=O
Assay System: APE1 (Homo sapiens, UniProt P27695)
Quantity Name: IC50
Test Result: 6.7
--
Mol: Cn1cccc1/C=C1\C(=O)NC(=O)N(Cc2ccco2)C1=O
Assay System: APE1 (Homo sapiens, UniProt P27695)
Quantity Name: IC50
Test Result: 14.1
--
Mol: COc1ccc(NC(=O)c2cc(-c3ccco3)nc3ccccc23)cn1
Assay System: APE1 (Homo sapiens, UniProt P27695)
Quantity Name: IC50
Test Result: 11.9
--
Mol: O=c1ccc2[n+]([O-])c3ccc([O-])cc3oc-2c1.[Na+]
Assay System: APE1 (Homo sapiens, UniProt P27695)
Quantity Name: IC50
Test Result: 25.1
--
Mol: O=C1CCCC(O)=C1N=Nc1cccc(C(=O)O)c1
Assay System: APE1 (Homo sapiens, UniProt P27695)
Quantity Name: IC50
Test Result: 10
--
Mol: Cc1cc(C=O)c(C)n1-c1ccc(Cl)c(C(=O)O)c1
Assay System: APE1 (Homo sapiens, UniProt P27695)
Quantity Name: IC50
Test Result: 5.6
--
Mol: COc1cc(-c2nnc(COC(=O)c3ccc(C)o3)o2)cc(OC)c1OC
Assay System: APE1 (Homo sapiens, UniProt P27695)
Quantity Name: IC50
Test Result: 23.8
--
Mol: N#Cc1c(NC(=O)COC(=O)c2ccc(O)cc2O)sc2c1CCC2
Assay System: APE1 (Homo sapiens, UniProt P27695)
Quantity Name: IC50
Test Result: 11.9
--
Mol: COc1ccc(N2CCN(C(=O)Cc3ccc(S(=O)(=O)N4CCOCC4)s3)CC2)cc1
Assay System: APE1 (Homo sapiens, UniProt P27695)
Quantity Name: IC50
Test Result: 14.1
--
Mol: O=C(O[C@@H]1OC2COC(=O)c3cc(O)c(O)c(O)c3-c3c(cc(O)c(O)c3O)C(=O)O[C@@H]([C@H]1O)[C@@H]2O)c1cc(O)c(O)c(O)c1
Assay System: APE1 (Homo sapiens, UniProt P27695)
Quantity Name: IC50
Test Result: 0.07

###

Recorded pIC50 by entry
Assay System: APE1 (Homo sapiens)
Construct: made in house
Method Summary: Fluorogenic kinetic qHTS APE1 incision assay (primary screen and retest of cherrypicked samples);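 note: purified APE1 cleaving a fluorophore/dark-quencher labelled 17-mer duplex DNA bearing a tetrahydrofuran AP site, fluorescence rise followed kinetically over the first 2 min, inhibition normalized to controls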
Format: biochemical
Conditions: initial quantitative high-throughput screen; read-out: APE1 qHTS IC50
pIC50: −log10 of the molar value.
Quantity Name: pIC50

Compound: NS(=O)(=O)c1ccc(N=Nc2ccc(=O)[nH]c2O)cc1 [MLS000738241]
Test Result: 5.12
--
Compound: NS(=O)(=O)c1cccc(NC(=O)c2ccc3nc[nH]c3c2)c1 [MLS001177378]
Test Result: 4.57
--
Compound: CCOc1ccc(NC(=O)CN(C)C(=O)C2COc3ccccc3O2)cc1OCC (stereo not drawn) [MLS002248300]
Test Result: 4.67
--
Compound: CC1CCN(C2=NN3C(=N)/C(=C\c4ccc(OC(=O)c5ccco5)cc4)C(=O)N=C3S2)CC1 [MLS001076862]
Test Result: 4.97
--
Compound: CCNc1nc(NCC)n2c(SCC(=O)Nc3ccc(OC(F)F)cc3)nnc2n1 [MLS001234379]
Test Result: 4.97
--
Compound: O=C(O)c1ccc(-n2cccc2/C=C2/NC(=O)N(c3ccccc3)C2=O)cc1 [MLS000778414]
Test Result: 5.60
--
Compound: CC(=O)Nc1sc2c(c1-c1nc3ccccc3s1)CCN(C(C)C)C2 [MLS000419194]
Test Result: 4.85
--
Compound: O=C(O)C1CCCCC1C(=O)Nc1cccc(Br)c1 (stereo not drawn) [MLS002152987]
Test Result: 6.30
--
Compound: CSCC[C@H](NS(=O)(=O)c1ccc(C(C)=O)cc1)c1nnc2ccccn12 [MLS001158971]
Test Result: 4.67
